pIC50 values by entry
target: PI3Kγ (Homo sapiens, UniProt P48736); test: PI3K enzyme inhibitory activity in the cell free assay (ADP-Glo Kinase Assay); conditions: human recombinant PI3Kγ, ATP 30 μM; read-out: PI3K gamma inhibition
Sequence (P48736 whole entry): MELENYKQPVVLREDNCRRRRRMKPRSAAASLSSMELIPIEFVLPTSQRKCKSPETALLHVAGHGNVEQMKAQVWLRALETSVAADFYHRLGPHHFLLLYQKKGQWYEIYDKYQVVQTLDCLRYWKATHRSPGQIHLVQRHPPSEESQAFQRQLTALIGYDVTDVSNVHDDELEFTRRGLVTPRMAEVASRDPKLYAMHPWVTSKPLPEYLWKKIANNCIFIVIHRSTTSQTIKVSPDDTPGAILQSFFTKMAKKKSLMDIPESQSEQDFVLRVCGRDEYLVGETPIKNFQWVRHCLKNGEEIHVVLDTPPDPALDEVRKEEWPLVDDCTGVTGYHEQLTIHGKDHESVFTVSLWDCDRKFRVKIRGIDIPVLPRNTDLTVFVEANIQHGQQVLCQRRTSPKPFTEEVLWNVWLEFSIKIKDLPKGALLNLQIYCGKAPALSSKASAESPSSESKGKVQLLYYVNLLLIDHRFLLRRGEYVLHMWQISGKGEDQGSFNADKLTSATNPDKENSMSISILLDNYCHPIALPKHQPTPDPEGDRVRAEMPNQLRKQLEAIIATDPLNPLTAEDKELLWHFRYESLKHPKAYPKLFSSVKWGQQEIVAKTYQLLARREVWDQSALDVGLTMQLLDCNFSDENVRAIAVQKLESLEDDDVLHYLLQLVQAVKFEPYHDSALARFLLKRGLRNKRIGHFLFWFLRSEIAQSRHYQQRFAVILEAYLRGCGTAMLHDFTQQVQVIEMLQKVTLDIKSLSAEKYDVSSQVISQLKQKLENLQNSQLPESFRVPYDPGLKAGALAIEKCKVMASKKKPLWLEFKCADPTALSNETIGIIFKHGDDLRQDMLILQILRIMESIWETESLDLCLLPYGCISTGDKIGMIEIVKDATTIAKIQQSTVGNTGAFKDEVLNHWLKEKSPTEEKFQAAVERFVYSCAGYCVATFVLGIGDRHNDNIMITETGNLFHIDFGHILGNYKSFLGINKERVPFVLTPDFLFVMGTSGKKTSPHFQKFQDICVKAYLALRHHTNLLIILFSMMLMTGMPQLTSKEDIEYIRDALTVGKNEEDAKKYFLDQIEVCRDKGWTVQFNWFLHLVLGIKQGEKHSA
pIC50: −log10 of the molar value. Counter-ions that a name gives are not always drawn.

A selection of reference data follows.
[[record]]
molecule = "CC(=O)N1CC=C(c2c(C(C)n3nc(-c4cncc(O)c4)c4c(N)ncnc43)oc(=O)c3ccccc23)CC1 (stereo not drawn)"
studytarget = "PI3Kγ (Homo sapiens, UniProt P48736)"
experimentalresult = "6.00 to 8.00"

[[record]]
molecule = "CC(c1oc(=O)c2ccccc2c1-c1cccc(CCCN(C)C)c1)n1nc(-c2cc(O)cc(F)c2)c2c(N)ncnc21 (stereo not drawn)"
studytarget = "PI3Kγ (Homo sapiens, UniProt P48736)"
experimentalresult = "6.00 to 8.00"

[[record]]
molecule = "CC(c1oc(=O)c2ccccc2c1-c1ccc(CCCN(C)C)s1)n1nc(-c2cc(O)cc(F)c2)c2c(N)ncnc21 (stereo not drawn) [Example 136, Formate]"
studytarget = "PI3Kγ (Homo sapiens, UniProt P48736)"
experimentalresult = "< 6.00"

[[record]]
molecule = "Nc1ncnc2c1c(-c1ccc3cn[nH]c3c1)nn2Cc1oc(=O)c2ccccc2c1-c1ccccc1"
studytarget = "PI3Kγ (Homo sapiens, UniProt P48736)"
experimentalresult = "6.00 to 8.00"

[[record]]
molecule = "CC(c1oc(=O)c2ccccc2c1-c1cccc(C(=O)NCCN(C)C)c1)n1nc(-c2cc(O)cc(F)c2)c2c(N)ncnc21 (stereo not drawn) [Example 70, hydrochloride]"
studytarget = "PI3Kγ (Homo sapiens, UniProt P48736)"
experimentalresult = "6.00 to 8.00"

[[record]]
molecule = "CC(c1oc(=O)c2ccccc2c1C1=CCN(C2CN(CC3CC3)C2)CC1)n1nc(-c2cc(O)cc(F)c2)c2c(N)ncnc21 (stereo not drawn) [Example 157, dihydrochloride]"
studytarget = "PI3Kγ (Homo sapiens, UniProt P48736)"
experimentalresult = "6.00 to 8.00"

[[record]]
molecule = "CC(c1oc(=O)c2ccc(Cl)cc2c1-c1ccccc1)n1nc(-c2cc(O)cc(F)c2)c2c(N)ncnc21 (stereo not drawn)"
studytarget = "PI3Kγ (Homo sapiens, UniProt P48736)"
experimentalresult = "6.00 to 8.00"

[[record]]
molecule = "CC(c1oc(=O)c2ccccc2c1-c1cncs1)n1nc(-c2cc(O)cc(F)c2)c2c(N)ncnc21 (stereo not drawn)"
studytarget = "PI3Kγ (Homo sapiens, UniProt P48736)"
experimentalresult = "6.00 to 8.00"


Okay, now this molecule:
INPUT: Please indicate pIC50 recorded for CC(c1oc(=O)c2ccccc2c1C1=CCN(C)CC1)n1nc(-c2cncc(O)c2)c2c(N)ncnc21 (stereo not drawn) [Example 175, hydrochloride]
OUTPUT: 6.00 to 8.00

---

molecular target: PI3Kγ (Homo sapiens, UniProt P48736); assay: PI3K enzyme inhibitory activity in the cell free assay (ADP-Glo Kinase Assay); settings: human recombinant PI3Kγ, ATP 30 μM; read-out: PI3K gamma inhibition
Where a name gives a salt, the structure may show the parent alone.
Let's look at some molecules and their measured IC50.

[[record]]
molecule = "CC(c1oc(=O)c2ccccc2c1-c1ccc(C(=O)O)s1)n1nc(-c2cc(O)cc(F)c2)c2c(N)ncnc21 (centres unmarked)"
experimentalresult = "10 to 1000 nM"

[[record]]
molecule = "CC(c1oc(=O)c2ccc(F)cc2c1-c1ccccc1)n1nc(-c2cc(O)cc(F)c2)c2c(N)ncnc21 (centres unmarked)"
experimentalresult = "10 to 1000 nM"


# evaluate next
INPUT: Annotate the molecule CC(c1oc(=O)c2ccccc2c1-c1ccc(CN2CCN(C)CC2)s1)n1nc(-c2cc(O)cc(F)c2)c2c(N)ncnc21 (centres unmarked) [Example 135, dihydrochloride] with its measured IC50.
OUTPUT: 10 to 1000 nM

---

Quick list: pIC50 per entry.
biological target: PI3Kγ (Homo sapiens, UniProt P48736); test: PI3K enzyme inhibitory activity in the cell free assay (ADP-Glo Kinase Assay); details: human recombinant PI3Kγ, ATP 30 μM; read-out: PI3K gamma inhibition
pIC50: −log10 of the molar value. Counter-ions that a name gives are not always drawn.

Take a look at these entries with their results.
[[record]]
molecule = "CC(c1oc(=O)c2ccccc2c1C1=CCCN(Cc2ccccc2)C1)n1nc(-c2cc(O)cc(F)c2)c2c(N)ncnc21 (centres unmarked) [Example 169, hydrochloride]"
experimentalresult = "6.00 to 8.00"

[[record]]
molecule = "CC(c1oc(=O)c2ccccc2c1C1=CCNCC1)n1nc(-c2cc(O)cc(Cl)c2)c2c(N)ncnc21 (centres unmarked) [Example 152, formate]"
experimentalresult = "6.00 to 8.00"

[[record]]
molecule = "CC(c1oc(=O)c2ccccc2c1-c1ccccc1)n1nc(I)c2c(N)ncnc21 (centres unmarked) [Int D2]"
experimentalresult = "6.00 to 8.00"

[[record]]
molecule = "Cc1cccc(-c2c(Cn3cnc4c(N)ncnc43)oc(=O)c3ccccc23)c1"
experimentalresult = "< 6.00"

[[record]]
molecule = "Cc1nn(C(C)c2oc(=O)c3ccccc3c2-c2ccccc2)c2ncnc(N)c12 (centres unmarked)"
experimentalresult = "6.00 to 8.00"

[[record]]
molecule = "CC(c1oc(=O)c2ccccc2c1C1=CCN(C(=O)CCCN(C)C)CC1)n1nc(-c2cc(O)cc(F)c2)c2c(N)ncnc21 (centres unmarked) [Example 146, formate]"
experimentalresult = "6.00 to 8.00"

[[record]]
molecule = "CC(c1oc(=O)c2ccccc2c1C1=CCN(C)CC1)n1nc(-c2cc(O)cc(Cl)c2)c2c(N)ncnc21 (centres unmarked) [Example 154, formate]"
experimentalresult = "< 6.00"

[[record]]
molecule = "Cc1ncc(-c2nn(C(C)c3oc(=O)c4ccccc4c3-c3ccccc3)c3ncnc(N)c23)cc1O (centres unmarked)"
experimentalresult = "6.00 to 8.00"


INPUT: Find pIC50 for CC(Nc1ncnc2[nH]cnc12)c1oc(=O)c2ccccc2c1-c1ccc(CN2CCOCC2)s1 (centres unmarked) on PI3Kγ (Homo sapiens, UniProt P48736) and write it down.
OUTPUT: 6.00 to 8.00

INPUT: State, for PI3Kγ (Homo sapiens, UniProt P48736), measured pIC50 of the molecule listed here: CC(c1oc(=O)c2ccccc2c1C1=CCN(C)CC1)n1nc(-c2cc(O)cc(C(F)(F)F)c2)c2c(N)ncnc21 (centres unmarked) [Example 155, formate]
OUTPUT: < 6.00

INPUT: # return pIC50 for CC(c1oc(=O)c2ccccc2c1-c1ccc(CN2CCCCC2)s1)n1nc(-c2cc(O)cc(F)c2)c2c(N)ncnc21 (centres unmarked) [Example 68, hydrochloride] , test system: PI3Kγ (Homo sapiens, UniProt P48736)
OUTPUT: 6.00 to 8.00

INPUT: GET pIC50 | system: PI3Kγ (Homo sapiens, UniProt P48736) | item: CC(c1oc(=O)c2ccccc2c1-c1ccccc1)n1nc(-c2cnc(C(F)(F)F)c(O)c2)c2c(N)ncnc21 (centres unmarked)
OUTPUT: < 6.00

INPUT: Print PI3Kγ (Homo sapiens, UniProt P48736) pIC50 for CC(c1oc(=O)c2ccccc2c1-c1ccc(CN2CCCCC2)cc1)n1nc(-c2cc(O)cc(F)c2)c2c(N)ncnc21 (centres unmarked) [Example 141, hydrochloride] .
OUTPUT: < 6.00

INPUT: Report measured pIC50 on PI3Kγ (Homo sapiens, UniProt P48736); entry: CC(c1oc(=O)c2ccccc2c1CN1CCOCC1)n1nc(-c2cc(O)cc(F)c2)c2c(N)ncnc21 (centres unmarked)
OUTPUT: 6.00 to 8.00

INPUT: Report value: pIC50, system: PI3Kγ (Homo sapiens, UniProt P48736), molecule: CC(c1oc(=O)c2ccccc2c1-c1ccccc1)n1nc(-c2cccc3[nH]ncc23)c2c(N)ncnc21 (centres unmarked)
OUTPUT: 6.00 to 8.00

INPUT: Fill in: pIC50 on PI3Kγ (Homo sapiens, UniProt P48736), entry CC(c1oc(=O)c2ccccc2c1C1=CC(C)(C)NC(C)(C)C1)n1nc(-c2cc(O)cc(F)c2)c2c(N)ncnc21 (centres unmarked) [Example 144, hydrochloride]
OUTPUT: 6.00 to 8.00

INPUT: State recorded pIC50 with PI3Kγ (Homo sapiens, UniProt P48736), entry Nc1ncnc2c1c(-c1cc(O)cc(F)c1)nn2Cc1oc(=O)c2ccccc2c1-c1ccccc1 , no comment.
OUTPUT: 6.00 to 8.00
